B1: TPR t1 (parent)
chain: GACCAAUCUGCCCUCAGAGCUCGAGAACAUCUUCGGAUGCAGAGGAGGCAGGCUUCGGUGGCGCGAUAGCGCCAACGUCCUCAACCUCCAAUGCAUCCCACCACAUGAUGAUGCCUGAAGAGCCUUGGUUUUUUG

- Variants of: B1
- procedure-summary: polymerase ribozyme fitness, log enrichment relative to wild type (log ratio); higher = more active; in vitro selection for triplet polymerase activity
Parameter: polymerase ribozyme fitness (log ratio). Scope: all listed entries.

- variant-annotation: "U106A G127C"
  polymerase ribozyme fitness (log ratio): -3.2
- variant-annotation: "A6C C72A"
  polymerase ribozyme fitness (log ratio): -1.05
- variant-annotation: "G61A C73A A118G"
  polymerase ribozyme fitness (log ratio): -1.71
- variant-annotation: "A68G C79G A105G G110U"
  polymerase ribozyme fitness (log ratio): -8.49
- variant-annotation: "G10A G48A G63U C82G A91U G117C"
  polymerase ribozyme fitness (log ratio): -5.31
- variant-annotation: "C62U U132A"
  polymerase ribozyme fitness (log ratio): -0.469
- variant-annotation: "C8G C13A C85U G135U"
  polymerase ribozyme fitness (log ratio): -1.16
- variant-annotation: "C34A U55C G60A U129G"
  polymerase ribozyme fitness (log ratio): -4.44
- variant-annotation: "A6U C15G U59G"
  polymerase ribozyme fitness (log ratio): -2.42
- variant-annotation: "C40G C115A G120C G122U"
  polymerase ribozyme fitness (log ratio): -1.41
- variant-annotation: "U55A G61C U96A G120C"
  polymerase ribozyme fitness (log ratio): -1.22
- variant-annotation: "A37U U125G"
  polymerase ribozyme fitness (log ratio): -1.07
- variant-annotation: "G69U A84U C124U"
  polymerase ribozyme fitness (log ratio): 1.84
- variant-annotation: "G17A G71A C72U C94G C123G"
  polymerase ribozyme fitness (log ratio): -5.54
- variant-annotation: "U9A G44C C70G"
  polymerase ribozyme fitness (log ratio): -4.48
- variant-annotation: "G42C G48A G63U U78C A83C G113U"
  polymerase ribozyme fitness (log ratio): -7.11
- variant-annotation: "C12G U59G A90G G113A"
  polymerase ribozyme fitness (log ratio): -2.53
- variant-annotation: "G58U G60A G77U"
  polymerase ribozyme fitness (log ratio): 0.541
- variant-annotation: "G57C G120U C124U"
  polymerase ribozyme fitness (log ratio): 0.197
- variant-annotation: "U55C G58A"
  polymerase ribozyme fitness (log ratio): 0.121
- variant-annotation: "A18C C53G G60U U116G"
  polymerase ribozyme fitness (log ratio): -2.87
- variant-annotation: "G71U C99U"
  polymerase ribozyme fitness (log ratio): -4.69
